assay protocol: in vitro
Design: Viability of infected HeLa host cells, resazurin conversion, bulk resorufin fluorescence relative to DMSO
measurement parameters: human, hela cells; bulk resorufin, mean of 3
Kindly supply the reported viability at 28.5 h, 0.333 µM values for the records listed here.
All answers are understood in %, so give the number only.

Input line: Item Cn1cc(C(c2ccc(OCC(=O)O)cc2)c2cn(C)c3ccccc23)c2ccccc21 [c48e] has what recorded viability at 28.5 h, 0.333 µM?
Output line: 89.6

Input line: viability at 28.5 h, 0.333 µM for CNC(=S)N1CCN(c2nsc3ccccc23)CC1 ?
Output line: 101

Input line: Dear colleague, I am looking for the recorded viability at 28.5 h, 0.333 µM of the following molecule: COc1c(Br)cc2c(cc(C)n2-c2ccccc2)c1OCC(O)CNC(C)C (stereo not drawn)
Output line: 87.6

Input line: So what's the measured viability at 28.5 h, 0.333 µM for this one? Oc1c(CN2CCN(c3ccc(F)cc3)CC2)cc(Br)c2cccnc12 [c43e]
Output line: 90

Input line: What value of measured viability at 28.5 h, 0.333 µM is listed for O=C(N/N=C/c1ccc(Sc2cccc3cccnc23)o1)c1cccc(F)c1 [c10e] ?
Output line: 88

Input line: Quick one: viability at 28.5 h, 0.333 µM for N#Cc1c(Nc2cccc(C(F)(F)F)c2)sc(C(=O)c2ccc3c(c2)OCO3)c1N ?
Output line: 85.7

Input line: Please look up its viability at 28.5 h, 0.333 µM: CN(C(=O)c1ccc(Cl)c(Cl)c1)[C@H]1CCC[C@H]1N1CCCC1 [c12e]
Output line: 88.7

Input line: State the recorded viability at 28.5 h, 0.333 µM for this entry: O=C(NCCc1c[nH]c2ccc(Cl)cc12)c1c(F)ccc(Cl)c1F [c42e]
Output line: 106

Input line: // returns reported viability at 28.5 h, 0.333 µM for input CCCCc1ccc(Nc2csc(N)n2)cc1 [c11e]
Output line: 99.6

Input line: Can you share its viability at 28.5 h, 0.333 µM? I mean this molecule: CCCN(CCC)CCc1cccc2c1CCN2C(=O)c1cc2ccccc2s1 [c15e]
Output line: 94.4

Input line: What value of viability at 28.5 h, 0.333 µM has been recorded for this entry: O=C(CSc1nnc(-c2cccnc2)o1)c1ccccc1 [c35e]
Output line: 87

Input line: Look up viability at 28.5 h, 0.333 µM for this molecule: O=C(CC1CCN(CCc2ccccc2)CC1)Nc1cccc(-n2cccn2)c1
Output line: 86.2

Input line: Which value of viability at 28.5 h, 0.333 µM has been reported for CC(Cc1nc(-c2nccn2C)cs1)n1cc(Cl)cn1 (stereo not drawn) [c14e] in the records?
Output line: 103

Input line: Bench note: what viability at 28.5 h, 0.333 µM did FC(F)(F)c1ccc(N2CCNCC2)nc1OCc1ccc2c(c1)OCCO2 [c46e] show?
Output line: 88.9

Input line: GET /values?readout=viability at 28.5 h, 0.333 µM&item= COc1cccc(CNC(C(=O)O)c2ccc3c(c2)OCO3)c1 (stereo not drawn) [c40e]
Output line: 103

====

assay protocol: in vitro
measurement parameters: human, hela cells, % viability
viability at 28.5 h, 10 µM less than 90% is MET; viability at 28.5 h, 10 µM greater than or equal to 90% is NOT MET.

Input line: Report whether reported viability at 28.5 h, 10 µM is lower than 90% (strictly) for Cc1ccc(C(=O)Nc2cccc(-c3nc4ncccc4o3)c2C)cc1[N+](=O)[O-] [CBK262793]
Output line: NOT MET

Input line: Answer whether the molecule O=C(N/C(=C/c1ccccc1)C(=O)N1CCCCC1)c1ccccc1 [CBK261280] has viability at 28.5 h, 10 µM strictly less than 90%
Output line: NOT MET

Input line: Determine if CCNS(=O)(=O)c1ccc(CCC(=O)Nc2ccc3c(c2)OCCO3)cc1 [CBK268255] shows viability at 28.5 h, 10 µM strictly lower than 90%.
Output line: NOT MET

Input line: hey, is viability at 28.5 h, 10 µM for CC(O)c1cc2n(n1)CCN(C(=O)c1csc(Cc3ccccc3)n1)C2 (centres unmarked) [CBK307437] lower than 90% or not?
Output line: NOT MET

Input line: Find out if reported viability at 28.5 h, 10 µM for Cn1nc(C2CCCN(C(=O)c3cccc(F)c3)C2)c2cccnc21 (centres unmarked) [CBK282155] is less than 90%
Output line: MET
